Test System: Rat Striatal Nicotinic Receptors ([^3H]NIC binding) (Rattus norvegicus, UniProt P09483+P12390)
Construct: Whole brain, excluding cortex and cerebellum, was homogenized; from tissue; host or cells: rat brain membranes (whole brain excluding cortex and cerebellum)
Sequence (P09483 31-630): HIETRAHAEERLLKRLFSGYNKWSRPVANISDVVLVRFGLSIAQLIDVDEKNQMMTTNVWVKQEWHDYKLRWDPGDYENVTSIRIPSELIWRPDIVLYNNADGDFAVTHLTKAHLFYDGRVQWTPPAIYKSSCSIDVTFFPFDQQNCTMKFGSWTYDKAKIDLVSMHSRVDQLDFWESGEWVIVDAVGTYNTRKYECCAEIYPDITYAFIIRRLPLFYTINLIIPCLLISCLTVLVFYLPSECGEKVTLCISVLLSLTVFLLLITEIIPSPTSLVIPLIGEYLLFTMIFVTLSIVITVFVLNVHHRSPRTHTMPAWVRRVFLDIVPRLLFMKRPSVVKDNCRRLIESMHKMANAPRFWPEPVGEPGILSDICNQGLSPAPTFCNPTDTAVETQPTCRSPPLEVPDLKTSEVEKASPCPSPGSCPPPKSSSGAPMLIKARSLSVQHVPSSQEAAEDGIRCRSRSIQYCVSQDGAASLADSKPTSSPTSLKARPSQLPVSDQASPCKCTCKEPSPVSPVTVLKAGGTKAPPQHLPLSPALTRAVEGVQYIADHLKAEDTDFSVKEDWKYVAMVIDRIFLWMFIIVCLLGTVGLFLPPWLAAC
Sequence (P12390 25-500): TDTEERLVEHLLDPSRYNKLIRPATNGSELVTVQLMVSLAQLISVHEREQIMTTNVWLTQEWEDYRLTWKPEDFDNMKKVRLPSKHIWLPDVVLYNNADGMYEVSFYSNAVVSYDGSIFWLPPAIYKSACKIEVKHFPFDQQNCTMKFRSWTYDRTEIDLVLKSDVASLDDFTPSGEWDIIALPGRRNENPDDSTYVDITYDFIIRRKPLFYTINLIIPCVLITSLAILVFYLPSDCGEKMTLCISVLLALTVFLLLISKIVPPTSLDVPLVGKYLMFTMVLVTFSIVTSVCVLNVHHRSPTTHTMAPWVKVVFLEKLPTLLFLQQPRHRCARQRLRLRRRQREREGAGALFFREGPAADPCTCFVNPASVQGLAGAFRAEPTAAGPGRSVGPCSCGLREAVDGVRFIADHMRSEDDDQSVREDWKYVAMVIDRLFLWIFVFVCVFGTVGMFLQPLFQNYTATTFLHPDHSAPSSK
Test Description: Inhibition of [^3H]nicotine binding to brain membranes
Condition Description: % inhibition at 100 nM analog; 3 nM [^3H]NIC; nonspecific 10 μM nicotine
Description: Test compounds of Formula (I), representing the mono quaternary nicotine analogs of the present invention, were evaluated to determine the effect of a test compound on nicotine-binding and methyllycaconitine-binding mediated by nicotine acetylcholine receptors. Homogenate was centrifuged (25,000 g, 15 min, 4° C.). […] In the [^3H]nicotine-binding assay and [^3H]MLA-binding assay, nonspecific-binding was determined in the presence of 10 μM nicotine and 10 μM MLA, respectively. […]
Metric: inhibition at 0.1 µM
Please answer in the form of a number followed by its unit of measurement.

Below are worked cases with known answers.
1. CCCCc1ccc(CCCC[n+]2ccc(C)cc2)cc1
5%
2. Cc1cc(C)c[n+](CCCCCCCCCCCCCc2cccnc2)c1
0%
3. CCCCc1ccc(C#CCC[n+]2cccc(CC)c2)cc1
0%
4. C(#Cc1ccc(-c2ccccc2)cc1)CCC[n+]1ccccc1
2%
5. Cc1cccc[n+]1CCCCCCCCc1ccccc1
0%

Need inhibition at 0.1 µM for each of these compounds.
1. Cc1cc[n+](CCCCCCCCc2ccccc2)c(C)c1
2. CN1CCC[C@H]1c1ccc[n+](CCCC#Cc2ccc(-c3ccccc3)cc2)c1
3. Cc1cc[n+](CCCC#Cc2ccc(-c3ccccc3)cc2)c(C)c1

1: 0%; 2: 20%; 3: 2%

---

Test System: Rat Striatal Nicotinic Receptors ([^3H]MLA binding) (Rattus norvegicus, UniProt Q05941)
Construct: Whole brain, excluding cortex and cerebellum, was homogenized; from tissue; host or cells: rat brain membranes (whole brain excluding cortex and cerebellum)
Sequence (Q05941 23-502): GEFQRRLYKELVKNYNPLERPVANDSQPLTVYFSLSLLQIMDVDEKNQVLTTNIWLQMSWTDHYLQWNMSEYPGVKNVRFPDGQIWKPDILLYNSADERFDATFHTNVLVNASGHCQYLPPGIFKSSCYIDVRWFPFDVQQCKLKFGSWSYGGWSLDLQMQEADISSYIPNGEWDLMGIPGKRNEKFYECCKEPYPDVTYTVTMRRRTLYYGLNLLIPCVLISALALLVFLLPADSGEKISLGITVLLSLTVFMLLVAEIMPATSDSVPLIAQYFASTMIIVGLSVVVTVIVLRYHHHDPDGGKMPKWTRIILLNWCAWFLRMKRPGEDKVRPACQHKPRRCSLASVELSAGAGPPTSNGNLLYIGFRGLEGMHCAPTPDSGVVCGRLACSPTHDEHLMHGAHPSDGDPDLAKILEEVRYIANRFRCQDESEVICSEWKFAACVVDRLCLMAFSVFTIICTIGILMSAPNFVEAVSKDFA
Test Description: Inhibition of [^3H]methyllycaconitine (MLA) binding to brain membranes
Condition Description: % inhibition at 100 nM analog; 2.5 nM [^3H]MLA; nonspecific 1 μM MLA (footnote)
Kindly supply the reported inhibition at 0.1 µM values for the records listed here.
Please answer in the form of a number followed by its unit of measurement.

Need inhibition at 0.1 µM for each of these compounds.
1. Cc1cc[n+](CCCC#Cc2ccc(-c3ccccc3)cc2)cc1
2. CCCCc1ccc(C#CCC[n+]2ccc(C)cc2)cc1

["3%", "3%"]

// inhibition at 0.1 µM lookup, compound = Cc1cc(C)c[n+](CCCC#Cc2ccc(-c3ccccc3)cc2)c1 , result: 3%

From: patent US8846937B2
